Reference source for all entries: ChEMBL document CHEMBL5291721

As a worked illustration, we turn to AC50 data collected for UniProt:P21728.
Sequence (P21728 whole entry): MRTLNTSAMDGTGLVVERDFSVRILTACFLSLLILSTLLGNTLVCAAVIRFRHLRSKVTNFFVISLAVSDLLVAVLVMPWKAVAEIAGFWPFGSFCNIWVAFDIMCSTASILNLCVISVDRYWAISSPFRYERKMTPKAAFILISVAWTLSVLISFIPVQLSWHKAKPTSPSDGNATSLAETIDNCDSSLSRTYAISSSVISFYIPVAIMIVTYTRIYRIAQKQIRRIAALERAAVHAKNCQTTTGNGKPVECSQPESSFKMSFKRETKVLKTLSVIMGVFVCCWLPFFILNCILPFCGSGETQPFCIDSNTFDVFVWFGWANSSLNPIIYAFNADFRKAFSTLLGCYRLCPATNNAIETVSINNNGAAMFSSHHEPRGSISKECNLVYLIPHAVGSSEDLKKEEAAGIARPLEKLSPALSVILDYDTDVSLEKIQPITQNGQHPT

{"columns": ["molecule", "readout.kind", "endpoint.value"],
 "data": [
  ["CCCSc1nc(N[C@@H]2C[C@H]2c2ccc(F)c(F)c2)c2nnn([C@@H]3C[C@H](OCCO)[C@@H](O)[C@H]3O)c2n1", "AC50", "14.9 µM"],
  ["CC(=O)O[C@]1(C(C)=O)CC[C@H]2[C@@H]3C=C(Cl)C4=CC(=O)[C@@H]5C[C@@H]5[C@]4(C)[C@H]3CC[C@@]21C [CYPROTERONE ACETATE]", "AC50", "> 30 µM"],
  ["Cc1ccc(S(=O)(=O)NC(=O)NC2CCCCC2)cc1 [GLYCYCLAMIDE]", "AC50", "> 30 µM"]
]}

Okay, next one:
input: Find AC50 (UniProt:P21728) for the entry CCCCC1C(=O)N(c2ccccc2)N(c2ccc(O)cc2)C1=O (centres undefined) [OXYPHENBUTAZONE ANHYDROUS]
output: > 30 µM
